- Tested on: SF-539 CNS
- protocol_description: NCI-60 one-dose screen, 48 h
- conditions_used: 10 µM unless noted
- Experimental: Cells are grown in 96 well plates and exposed to the test compound for 48 hours. Compounds are tested at a single concentration, which is 10^-5 M for most compounds. The reported endpoint is percent growth (GI% or GIPRCNT), where numbers from 0 - 100% represent growth inhibition, and numbers from -100% - 0 represent cell death. For example, a value of 40 represents 60% growth inhibition. A value of 0 means no net growth occurred over the course of the experiment. […]
This is part of a sample that, as a whole, favours compounds with a hit. Of some 83,000 tested, about 20% had one in any assay. Activity calls are given as the source filed them. How the source made its calls: active means growth percent below 10; inactive means the rest.
Parameter call: string, one of 1 for active, 0 for inactive

Status in this test for C=C1C(=O)O[C@H]2[C@H]1CC/C(Cn1cc(-c3cc(C)c(C)cc3C)nn1)=C\CC[C@@]1(C)O[C@@H]21 ?
1

What did the test return for Brc1ccc([I+]c2ccc(Br)cc2)cc1 ?
0

Called result for CCCC(=O)OCC1OC(n2cnc3c(=S)nc[nH]c32)C(OC(=O)CCC)C1OC(=O)CCC (stereo not given)
0

What outcome does the record of this test show for COc1cccc2cc(-c3nc(C4CCC(C(=O)O)CC4)n4ncnc(N)c34)[nH]c12 (stereo not given) ?
1

Called result for Cn1nccc1Nc1nccc(-c2ccn([C@H](CO)c3ccc(Cl)c(F)c3)c(=O)c2)n1
0

In this assay, the call recorded for Nc1cc(C(F)(F)F)c(-c2cc(N3CCOCC3)nc(N3CCOCC3)n2)cn1 was what?
1

For CC(=O)c1cnc2ccc(-c3cc(Cl)c(O)c(Cl)c3)nc2c1NC1CCC(CN(C)C)CC1 (stereo not given) , what call appears in the results of this test?
1

Hi, do you know how CC[C@@H]1C(=O)N(C)c2cnc(Nc3ccc(C(=O)NC4CCC(N5CCN(CC6CC6)CC5)CC4)cc3OC)nc2N1C(C)C (stereo not given in full) came out in this test?
1

# lookup: test call for Oc1ccc(/C=N/Nc2nnc(N/N=C/c3ccc(O)cc3O)c3ccccc23)c(O)c1
1

Kindly provide the recorded test outcome for the following compound: c1cn2cc(-c3ccc4cn[nH]c4c3)nc(Nc3ccc(N4CCOCC4)cc3)c2n1
0

Short answer needed: outcome of this test for C=CC(=O)N1CCC(Oc2cc3c(Nc4ccc(Cl)c(Cl)c4F)ncnc3cc2OC)CC1 ?
1

# outcome recorded in this test, key = Cc1ccc(NC(=O)Nc2ccc(Nc3ncnc4sc5c(c34)CCOC5)cc2)cc1Cl
0

Call for entry NC(=O)c1n[nH]n2c1nc(=O)c1c3c(sc12)CCCC3 :
0

Hi, do you know how Cc1cc(N(CCNc2ccnc3cc(Cl)ccc23)Cc2cccs2)nc(Cl)n1 came out in this test?
1

Please state the recorded outcome for this compound: Cn1cc(-c2cnn3c(N)c(Br)c([C@@H]4CCCNC4)nc23)cn1
0

What was the test verdict on CCN(CCO)CCCOc1ccc2c(Nc3cc(CC(=O)Nc4cccc(F)c4)[nH]n3)ncnc2c1 ?
0

Could you check what this test reported for COc1cc2cc(NCc3ccc(Cl)cc3)nc(C)c2cc1OC ?
1

# lookup: test call for NN1C(=O)CSC1=S
0

Could you check what this test reported for Cc1cc(Nc2ncc(Cl)c(Nc3ccccc3S(=O)(=O)C(C)C)n2)c(OC(C)C)cc1C1CCNCC1 ?
1

Could you check what this test reported for O=C1C=CC2(NN=C(c3ccccc3)N2c2cccc(Cl)c2)c2cccc(O)c21 (stereo not given) ?
0
